Hi there, I'd appreciate the recorded pKd for every entry that follows.
# TARGET OR SYSTEM: T1, mouse FcRn (mouse, UniProt Q61559 22-297; P01887 21-119, limits assumed)
# T1 sequence (looked up) 1: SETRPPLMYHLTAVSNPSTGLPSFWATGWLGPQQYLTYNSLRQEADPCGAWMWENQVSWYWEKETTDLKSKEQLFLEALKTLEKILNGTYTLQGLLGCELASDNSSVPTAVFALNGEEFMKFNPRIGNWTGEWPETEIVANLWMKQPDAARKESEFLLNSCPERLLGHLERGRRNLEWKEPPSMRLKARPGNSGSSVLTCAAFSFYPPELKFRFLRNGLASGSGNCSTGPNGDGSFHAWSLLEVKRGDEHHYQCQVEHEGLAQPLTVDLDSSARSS
# T1 sequence (looked up) 2: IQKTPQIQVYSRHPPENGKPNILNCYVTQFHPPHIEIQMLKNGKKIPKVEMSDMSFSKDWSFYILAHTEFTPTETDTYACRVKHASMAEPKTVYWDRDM
# ASSAY OVERVIEW: SPR, pH 6
Value format note: pKd is -log10 of concentration (mol/L); just state the number.

Prompt: Endpoint output: pKd of Fc Fragment 1 (other, Human IgG1 Fc fragment (EU 221-446) with the named substitutions already in the entry; also called Efgartigimod (Efgart); Efgartigimod without the C-terminal lysine) DKTHTCPPCPAPELLGGPSVFLFPPKPKDTLYITREPEVTCVVVDVSHEDPEVKFNWYVDGVEVHNAKTKPREEQYNSTYRVVSVLTVLHQDWLNGKEYKCKVSNKALPAPIEKTISKAKGQPREPQVYTLPPSRDELTKNQVSLTCLVKGFYPSDIAVEWESNGQPENNYKTTPPVLDSDGSFFLYSKLTVDKSRWQQGNVFSCSVMHEALKFHYTQKSLSLSPG . Value?
Response: 9.57

Prompt: Endpoint output: pKd of Fc Fragment 2 (other, Human IgG1 Fc fragment; substitutions already in the entry; also called Fc195) DKTHTCPPCPAPELLGGPSVFLFPPKPKDTLYITREPEVTCVVVDVSHEDPEVKFNWYVDGVEVHNAKTKPREEQYNSTYRVVSVLTVLHQDWLNGKEYKCKVSNKALPAPIEKTISKAKGQPREPQVYTLPPSRDELTKNQVSLTCLVKGFYPSDIAVEWESNGQPENNYKTTPPVLDSDGSFFLYSKLTVDKSRWQQGNVFSCSVLHEALKFHYTQKSLSLSPG . Value?
Response: 9.74

Prompt: Endpoint output: pKd of Fc Fragment 11 (other, Human IgG1 Fc fragment; substitutions already in the entry) DKTHTCPPCPAPELLGGPSVFLFPPKPKDTLYITREPEVTCVVVDVSHEDPEVKFNWYVDGVEVHNAKTKPREEQYNSTYRVVSVLTVLHQDWLNGKEYKCKVSNKALPAPIEKTISKAKGQPREPQVYTLPPSRDELTKNQVSLTCLVKGFYPSDIAVEWESNGQPENNYKTTPPVLDSDGSFFLYSKLTVDKSRWQQGNVFSCSVLHEALHFHYTQKSLSLSPG . Value?
Response: 9.61

Prompt: Endpoint output: pKd of Fc Fragment 13 (other, Human IgG1 Fc fragment; substitutions already in the entry) DKTHTCPPCPAPELLGGPSVFLFPPKPKDTLYITREPEVTCVVVDVSHEDPEVKFNWYVDGVEVHNAKTKPREEQYNSTYRVVSVLTVLHQDWLNGKEYKCKVSNKALPAPIEKTISKAKGQPREPQVYTLPPSRDELTKNQVSLTCLVKGFYPSDIAVEWESNGQPENNYKTTPPVLDSDGSFFLYSKLTVDKSRWQQGNVFSCSVMHEALRFHYTQKSLSLSPG . Value?
Response: 9.70

Prompt: Endpoint output: pKd of Fc Fragment 14 (other, Human IgG1 Fc fragment; substitutions already in the entry) DKTHTCPPCPAPELLGGPSVFLFPPKPKDTLYITREPEVTCVVVDVSHEDPEVKFNWYVDGVEVHNAKTKPREEQYNSTYRVVSVLTVLHQDWLNGKEYKCKVSNKALPAPIEKTISKAKGQPREPQVYTLPPSRDELTKNQVSLTCLVKGFYPSDIAVEWESNGQPENNYKTTPPVLDSDGSFFLYSKLTVDKSRWQQGNVFSCSVLHEALRFHYTQKSLSLSPG . Value?
Response: 9.54
